// data source = patent US8802858B2

experiment: Pharmacokinetic studies in xenografted mice (plasma and tumor); assay type: in vivo, CD-1 Nu/Nu female mice; conditions: female, CD-1 Nu/Nu, mouse, plasma, iv; analyte Example 1 (free base), after i.v. 19.6 mg Example 1, xenografted mice; read-out: T1/2 of Example 1 in plasma (converted)
parameter_measured: half-life (h)
The figure you give is taken to be in h; do not add the unit.

In: I have this molecule here, N#CCCNc1nonc1-c1nc2ccccc2n1CC(=O)c1ccc(NC(=O)[C@@H](N)CCCCN)cc1 , and I need its recorded half-life.
Out: 5.5

----------
assay: Determination of the maximum tolerated dose (MTD), once weekly i.v.; settings: athymic nude, mouse, in vivo, iv
parameter_measured: MTD (mg/kg)
The figure you give is taken to be in mg/kg; do not add the unit.

In: I have this molecule here, N#CCCNc1nonc1-c1nc2ccccc2n1CC(=O)c1ccc(NC(=O)[C@@H](N)CCCCN)cc1 , and I need its recorded MTD.
Out: 21

----------
assay: Pharmacokinetic studies in xenografted mice (plasma and tumor); assay type: in vivo, CD-1 Nu/Nu female mice; settings: female, CD-1 Nu/Nu, mouse, tumor, iv; after i.v. 8 mg/kg Parent Drug, xenografted mice; read-out: T1/2 of Parent Drug in tumors (converted)
parameter_measured: half-life (h)
The figure you give is taken to be in h; do not add the unit.

In: I have this compound here, N#CCCNc1nonc1-c1nc2ccccc2n1CC(=O)c1ccc(N)cc1 [Parent Drug, reference compound] , and I need its recorded half-life.
Out: 5.4

----------
assay: Pharmacokinetic studies in xenografted mice (plasma and tumor); type: in vivo, CD-1 Nu/Nu female mice; conditions: female, CD-1 Nu/Nu, mouse, plasma, iv; analyte Example 1 (free base), after i.v. 19.6 mg Example 1, xenografted mice; read-out: Cmax of Example 1 in plasma
parameter_measured: Cmax (µg/mL)
The figure you give is taken to be in µg/mL; do not add the unit.

In: I have this compound here, N#CCCNc1nonc1-c1nc2ccccc2n1CC(=O)c1ccc(NC(=O)[C@@H](N)CCCCN)cc1 , and I need its recorded Cmax.
Out: 81.9

----------
experiment: Pharmacokinetic studies in xenografted mice (plasma and tumor); type: in vivo, CD-1 Nu/Nu female mice; conditions: female, CD-1 Nu/Nu, mouse, tumor, iv; analyte Example 1 (free base), after i.v. 19.6 mg Example 1, xenografted mice; read-out: AUClast of Example 1 in tumors
parameter_measured: AUC(0-t) (ng·h/mL)
The figure you give is taken to be in ng·h/mL; do not add the unit.

In: I have this compound here, N#CCCNc1nonc1-c1nc2ccccc2n1CC(=O)c1ccc(NC(=O)[C@@H](N)CCCCN)cc1 , and I need its recorded AUC(0-t).
Out: 29300

----------
Assay: Pharmacokinetic studies in xenografted mice (plasma and tumor)
Format: in vivo, CD-1 Nu/Nu female mice
Details: female, CD-1 Nu/Nu, mouse, tumor, iv; analyte Example 1 (free base), after i.v. 19.6 mg Example 1, xenografted mice; read-out: T1/2 of Example 1 in tumors (converted)
Procedure: CD-1 Nu/Nu female mice implanted with the human colon carcinoma SW480 cell line are treated with either the “Parent Drug”, i.e. 3-(4-{1-[2-(4-amino-phenyl)-2-oxo-ethyl]-1H-benzoimidazol-2-yl}-furazan-3-ylamino)-propionitrile, or “Example 1” i.e. S-2,6-diamino-hexanoic acid [4-(2-{2-[4-(2-cyano-ethylamino)-furazan-3-yl]-benzoimidazol-1-yl}-acetyl)-phenyl]-amide hydrochloride salt, when the tumor size reached approximately 150 mm^3+/−10%. Mice (33 per compound) are treated i.v. […]
parameter_measured: half-life (h)
The figure you give is taken to be in h; do not add the unit.

In: I have this compound here, N#CCCNc1nonc1-c1nc2ccccc2n1CC(=O)c1ccc(NC(=O)[C@@H](N)CCCCN)cc1 , and I need its recorded half-life.
Out: 9.6
